Sourced from patent US20040009904A1

- experimental_target: ACA-6501
- test: Competitive binding peptide ACA ELISA, cardiolipin/β2-GPI-coated plates
- Set-up: species or system human
- applied_conditions: Optimization of Peptide 3G3; inf = no 50% inhibition
Bridge positions count the residues as written; N and C are the ends. Square brackets hold non-standard residues; d marks the D form. Peptide text beside a SMILES is read from it. Phg = N[C@H](C(=O)O)c1ccccc1
quantity_kind: with ACA 6501 150 ug/mL (µg/mL)

CC(C)C[C@@H]1NC(=O)[C@H](c2ccccc2)NC(=O)CNC(=O)[C@H](CC(C)C)NC(=O)[C@H](C(C)C)NC(=O)CNC(=O)[C@H](CC(C)C)NC(=O)[C@@H](N)CSSC[C@@H](C(=O)O)NC1=O [C L G V L Gp G L C] (H-CLGVLG[Phg]LC-OH; disulfide 1-9); 230
CC(C)C[C@@H]1NC(=O)[C@H](C(C)C)NC(=O)CNC(=O)[C@H](CC(C)C)NC(=O)[C@@H](N)CSSC[C@@H](C(=O)O)NC(=O)[C@H](c2ccccc2)NC(=O)[C@H](CCCCN)NC(=O)CNC1=O [C L G V L G K pG C] (H-CLGVLGK[Phg]C-OH; disulfide 1-9); 80
CC(C)C[C@@H]1NC(=O)[C@H](CCCCN)NC(=O)[C@H](c2ccccc2)NC(=O)[C@H](CC(C)C)NC(=O)[C@H](C(C)C)NC(=O)CNC(=O)[C@H](CC(C)C)NC(=O)[C@@H](N)CSSC[C@@H](C(=O)O)NC1=O [C L G V Lp G K L C] (H-CLGVL[Phg]KLC-OH; disulfide 1-9); 30
CC(C)C[C@@H]1NC(=O)[C@@H](NC(=O)[C@H]2CCCN2)CSSC[C@@H](C(=O)O)NC(=O)[C@H](CC(C)C)NC(=O)[C@H](CCCCN)NC(=O)CNC(=O)[C@H](CC(C)C)NC(=O)[C@H](C(C)C)NC(=O)CNC1=O [dP C L G V L G K L C] (H-[dP]CLGVLGKLC-OH; disulfide 2-10); 120
